Assign parental ratio to each entry below.
# study_target: PD-L1 (human)
# Sequence (chain, as listed by the source): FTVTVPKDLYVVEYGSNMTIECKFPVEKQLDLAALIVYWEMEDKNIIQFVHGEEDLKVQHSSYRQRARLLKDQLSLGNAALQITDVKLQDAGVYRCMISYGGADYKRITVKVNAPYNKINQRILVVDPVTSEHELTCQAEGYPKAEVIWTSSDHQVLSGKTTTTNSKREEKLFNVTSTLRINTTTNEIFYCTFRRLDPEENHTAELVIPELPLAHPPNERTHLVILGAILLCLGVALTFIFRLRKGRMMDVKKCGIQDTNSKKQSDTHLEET
# assay_remarks: flow cytometry, cells expressing PD-L1
# respond with the number and nothing more

Fill blank: measured parental ratio of the binder variant CD80 R29V/M43Q/E81R/L85I/K89R/D90L/A91E/F92N/K93Q/R94G (Fc fusion) VIHVTKEVKEVATLSCGHNVSVEELAQTVIYWQKEKKMVLTMQSGDMNIWPEYKNRTIFDITNNLSIVILALRPSDEGTYRCVVIKYERLENQGEHLAEVTLSVKADFPTPSISDFEIPTSNIRRIICSTSGGFPEPHLSWLENGEELNAINTTVSQDPETELYAVSSKLDFNMTTNHSFMCLIKYGHLRVNQTFNWNTTKQEHFPDN is ____.
0.09

Item under review: variant CD80 K54M/L70Q/A91G/Y164H (Fc fusion) VIHVTKEVKEVATLSCGHNVSVEELAQTRIYWQKEKKMVLTMMSGDMNIWPEYMNRTIFDITNNLSIVIQALRPSDEGTYECVVLKYEKDGFKREHLAEVTLSVKADFPTPSISDFEIPTSNIRRIICSTSGGFPEPHLSWLENGEELNAINTTVSQDPETELHAVSSKLDFNMTTNHSFMCLIKYGHLRVNQTFNWNTTKQEHFPDN . Reported parental ratio?
0.08

Which parental ratio is reported for this binder? variant CD80 L70Q/A91G/T110A/I118V/T120S/T130A (Fc fusion) VIHVTKEVKEVATLSCGHNVSVEELAQTRIYWQKEKKMVLTMMSGDMNIWPEYKNRTIFDITNNLSIVIQALRPSDEGTYECVVLKYEKDGFKREHLAEVTLSVKADFPAPSISDFEVPSSNIRRIICSASGGFPEPHLSWLENGEELNAINTTVSQDPETELYAVSSKLDFNMTTNHSFMCLIKYGHLRVNQTFNWNTTKQEHFPDN
0.07

What does the data say about its parental ratio? Entry: variant CD80 A91G/F92L/F108L/I118V/T120S (Fc fusion) VIHVTKEVKEVATLSCGHNVSVEELAQTRIYWQKEKKMVLTMMSGDMNIWPEYKNRTIFDITNNLSIVILALRPSDEGTYECVVLKYEKDGLKREHLAEVTLSVKADLPTPSISDFEVPSSNIRRIICSTSGGFPEPHLSWLENGEELNAINTTVSQDPETELYAVSSKLDFNMTTNHSFMCLIKYGHLRVNQTFNWNTTKQEHFPDN
0.11

May I ask what parental ratio has been recorded for variant CD80 V4M/L70Q/A91G/I118V/T120S/T130A/K169E (Fc fusion) VIHMTKEVKEVATLSCGHNVSVEELAQTRIYWQKEKKMVLTMMSGDMNIWPEYKNRTIFDITNNLSIVIQALRPSDEGTYECVVLKYEKDGFKREHLAEVTLSVKADFPTPSISDFEVPSSNIRRIICSASGGFPEPHLSWLENGEELNAINTTVSQDPETELYAVSSELDFNMTTNHSFMCLIKYGHLRVNQTFNWNTTKQEHFPDN ?
0.09

Dear colleague, I am looking for the recorded parental ratio of the following binder: variant CD80 A12V/S15F/Y31H/M38L/T41G/M43L/D90N/T130A/P137L/N149D/N152T (Fc fusion) VIHVTKEVKEVVTLFCGHNVSVEELAQTRIHWQKEKKLVLGMLSGDMNIWPEYKNRTIFDITNNLSIVILALRPSDEGTYECVVLKYEKNAFKREHLAEVTLSVKADFPTPSISDFEIPTSNIRRIICSASGGFPELHLSWLENGEELDAITTTVSQDPETELYAVSSKLDFNMTTNHSFMCLIKYGHLRVNQTFNWNTTKQEHFPDN
0.08

The reported numbers originate from patent US20250163127A1.
